EXPERIMENTAL_TARGET: Gastrin/cholecystokinin type B receptor (Rattus norvegicus)
Sequence (P30553 whole entry): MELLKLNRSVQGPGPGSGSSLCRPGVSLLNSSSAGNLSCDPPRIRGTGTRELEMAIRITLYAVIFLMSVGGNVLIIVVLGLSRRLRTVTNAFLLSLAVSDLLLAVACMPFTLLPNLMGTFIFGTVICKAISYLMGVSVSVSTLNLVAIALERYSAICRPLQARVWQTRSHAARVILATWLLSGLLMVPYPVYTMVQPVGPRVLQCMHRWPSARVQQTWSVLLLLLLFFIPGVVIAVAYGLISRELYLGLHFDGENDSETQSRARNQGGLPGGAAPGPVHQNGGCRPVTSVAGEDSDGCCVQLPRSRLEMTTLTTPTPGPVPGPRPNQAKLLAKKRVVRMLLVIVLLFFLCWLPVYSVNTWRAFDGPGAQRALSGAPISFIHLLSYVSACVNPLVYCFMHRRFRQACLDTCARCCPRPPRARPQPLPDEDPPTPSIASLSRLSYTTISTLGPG
ASSAY_DETAILS: Inhibition of [3H]pCCK-8 specific binding to cholecystokinin type B receptor in rat cerebral cortex
Type: tissue-based
MEASURE_NAME: IC50

Per the records, this molecule ( CC(C)(C)OC(=O)N[C@@H](Cc1c[nH]c2ccccc12)C(=O)N[C@@H]1CCCN2C(=O)N(Cc3ccccc3)C(=O)C[C@@H]12 [IQM-95333] ) has IC50 equal to > 10 µM

----------
EXPERIMENTAL_TARGET: Cholecystokinin receptor type A (Rattus norvegicus, UniProt P30551)
Sequence (P30551 whole entry): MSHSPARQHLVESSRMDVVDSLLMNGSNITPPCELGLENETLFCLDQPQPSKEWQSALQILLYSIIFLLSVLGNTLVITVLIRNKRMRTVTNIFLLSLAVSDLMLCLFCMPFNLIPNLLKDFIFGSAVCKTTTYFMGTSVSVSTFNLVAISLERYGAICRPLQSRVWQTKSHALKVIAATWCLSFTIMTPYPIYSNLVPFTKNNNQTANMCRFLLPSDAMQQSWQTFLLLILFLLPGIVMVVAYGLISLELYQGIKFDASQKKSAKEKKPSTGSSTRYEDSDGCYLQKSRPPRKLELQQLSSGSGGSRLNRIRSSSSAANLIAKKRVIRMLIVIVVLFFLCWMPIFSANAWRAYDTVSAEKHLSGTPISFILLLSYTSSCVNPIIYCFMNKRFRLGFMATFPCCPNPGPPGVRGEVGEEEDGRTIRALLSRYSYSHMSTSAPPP
A collection of compounds and their measured pIC50
As a rule, pIC50 stands for the negative log10 of the concentration, concentration in M.

| STRUCTURE_AS_SMILES | EXPERIMENTAL_TARGET | pIC50 |
| --- | --- | --- |
| CC(C)(C)OC(=O)N[C@@H](Cc1c[nH]c2ccccc12)C(=O)N[C@@H]1CCCN2C(=O)N(Cc3ccccc3)C(=S)C[C@@H]12 | Cholecystokinin receptor type A (Rattus norvegicus, UniProt P30551) | 8.55 |
| CC(C)(C)OC(=O)N[C@@H](Cc1c[nH]c2ccccc12)C(=O)N[C@@H]1CCCN2C(=S)N(Cc3ccccc3)C(=S)C[C@@H]12 | Cholecystokinin receptor type A (Rattus norvegicus, UniProt P30551) | 8.87 |
| CO[C@@H]1C[C@H]2[C@H](NC(=O)[C@H](Cc3c[nH]c4ccccc34)NC(=O)OC(C)(C)C)CCCN2C(=O)N1Cc1ccccc1 | Cholecystokinin receptor type A (Rattus norvegicus, UniProt P30551) | 6.43 |

Continue with the compound presented below.
Kindly note the recorded pIC50 for CC(C)(C)OC(=O)N[C@@H](Cc1c[nH]c2ccccc12)C(=O)N[C@H]1CCCN2C(=S)N(Cc3ccccc3)C(=O)C[C@H]12 , which is 6.08
